Values from patent US11472807B2

Test: Pharmacokinetics of Aftin-5 in mice after single PO or IP dose
Assay type: in vivo
Conditions: mouse, plasma, po, 5 mg/kg, PO single dose 5 mg/kg
Property: Cmax (µM)
All answers are understood in µM, so give the number only.

Query (compound): CC[C@H](CO)Nc1nc(N(C)c2ccccc2)c2ncn(C(C)C)c2n1 [Aftin-5] ; field requested: Cmax
3.89

* * *

Experiment: Pharmacokinetics of Aftin-5 in mice after single PO or IP dose
Type: in vivo
Conditions: mouse, brain, PO single dose 5 mg/kg
Property: Tmax (min)
All answers are understood in min, so give the number only.

Query (compound): CC[C@H](CO)Nc1nc(N(C)c2ccccc2)c2ncn(C(C)C)c2n1 ; field requested: Tmax
15

* * *

Test: Pharmacokinetics of Aftin-5 in mice after single PO or IP dose
Type: in vivo
Settings: mouse, brain, po, 5 mg/kg, PO single dose 5 mg/kg
Property: Cmax

Query (compound): CC[C@H](CO)Nc1nc(N(C)c2ccccc2)c2ncn(C(C)C)c2n1 ; field requested: Cmax
~44.9 nM

* * *

Assay: in vitro
Details: rat
Property: Papp at 60 min, 10 μM

Query (compound): CC[C@H](CO)Nc1nc(N(C)c2ccccc2)c2ncn(C(C)C)c2n1 ; field requested: Papp at 60 min, 10 μM
~35 ×10⁻⁶ cm/s

* * *

Experiment: Pharmacokinetics of Aftin-5 in mice after single PO or IP dose
Type: in vivo
Conditions: mouse, brain/plasma, oral administration, single dose 5 mg/kg, read-out: brain/plasma partition coefficient (Kpbrain/plasma)
Property: Kp

Query (compound): CC[C@H](CO)Nc1nc(N(C)c2ccccc2)c2ncn(C(C)C)c2n1 ; field requested: Kp
~0.014

* * *

Experiment: Pharmacokinetics of Aftin-5 in mice after single PO or IP dose
Assay type: in vivo
Settings: mouse, brain, IP single dose 10 mg/kg
Property: Tmax

Query (compound): CC[C@H](CO)Nc1nc(N(C)c2ccccc2)c2ncn(C(C)C)c2n1 ; field requested: Tmax
4.98 min

* * *

Assay: Pharmacokinetics of Aftin-5 in mice after single PO or IP dose
Format: in vivo
Settings: mouse, brain, ip, 10 mg/kg, IP single dose 10 mg/kg
From the text: In addition, pharmacokinetic experiments of Aftin-5 in mice confirmed the ability of the compound to reach the brain. The PK parameters are plotted in Table 3 below. The brain/plasma partition coefficient (Kpbrain/plasma) was about 0.014 and 0.033 for oral and IP administration, respectively.
Property: Cmax

Query (compound): CC[C@H](CO)Nc1nc(N(C)c2ccccc2)c2ncn(C(C)C)c2n1 ; field requested: Cmax
~807 nM

* * *

Assay: Pharmacokinetics of Aftin-5 in mice after single PO or IP dose
Format: in vivo
Conditions: mouse, brain/plasma, IP administration, single dose 10 mg/kg, read-out: brain/plasma partition coefficient (Kpbrain/plasma)
Property: Kp

Query (molecule): CC[C@H](CO)Nc1nc(N(C)c2ccccc2)c2ncn(C(C)C)c2n1 ; field requested: Kp
~0.033

* * *

Test: Pharmacokinetics of Aftin-5 in mice after single PO or IP dose
Format: in vivo
Settings: mouse, plasma, IP single dose 10 mg/kg
Property: Tmax (min)
All answers are understood in min, so give the number only.

Query (molecule): CC[C@H](CO)Nc1nc(N(C)c2ccccc2)c2ncn(C(C)C)c2n1 [Aftin-5] ; field requested: Tmax
4.98

* * *

Experiment: Pharmacokinetics of Aftin-5 in mice after single PO or IP dose
Type: in vivo
Conditions: mouse, plasma, ip, 10 mg/kg, IP single dose 10 mg/kg
Property: Cmax (µM)
All answers are understood in µM, so give the number only.

Query (molecule): CC[C@H](CO)Nc1nc(N(C)c2ccccc2)c2ncn(C(C)C)c2n1 [Aftin-5] ; field requested: Cmax
22.6

* * *

Assay: Brain and plasma exposure after chronic subcutaneous administration (Alzet osmotic pump)
Assay type: in vivo, C57Bl/6J mice
Settings: C57Bl/6J, mouse, sc, 30 mg/kg, 28 days, mice, read-out: brain/plasma partition coefficient (Kpbrain/plasma)
Property: Kp at 672 h

Query (compound): CC[C@H](CO)Nc1nc(N(C)c2ccccc2)c2ncn(C(C)C)c2n1 ; field requested: Kp at 672 h
~0.44
